B1: scFv; the commonest letter at each place (parent)
chain 1: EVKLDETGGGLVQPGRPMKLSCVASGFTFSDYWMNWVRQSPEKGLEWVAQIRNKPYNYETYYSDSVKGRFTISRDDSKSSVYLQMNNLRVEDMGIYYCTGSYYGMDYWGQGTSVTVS
chain 2: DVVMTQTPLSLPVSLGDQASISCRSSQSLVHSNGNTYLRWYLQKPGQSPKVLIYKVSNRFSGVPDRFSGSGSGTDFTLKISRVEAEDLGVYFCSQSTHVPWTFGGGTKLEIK

variants of: B1; test: Kd (Tite-Seq); settings: with fluorescein; format: scFv 4-4-20, heavy + light
experimentalEndpoint: Kd

chain 1 G100S Y102C: ≥ 10 µM
chain 1 F29Y D31E W33G: ≥ 10 µM
chain 1 M34P N35L: ≥ 10 µM
chain 1 F29Q M34W: ≥ 10 µM
chain 1 Y103I Y107F W108D: ≥ 10 µM

I have 3 variants here; please give me Kd for each one.
1. chain 1 M105F Y107S G109S
2. chain 1 F29Q S30Q
3. chain 1 G100M S101V

Reply:
["≥ 10 µM", "0.0146 µM", "≥ 10 µM"]

I have 5 variants here; please give me Kd for each one.
1. chain 1 F29I Y32G
2. chain 1 Y102S Y107R
3. chain 1 T28F F29H
4. chain 1 D31P Y32L
5. chain 1 Y32H W36F

Reply:
1: ≥ 10 µM; 2: 0.00251 µM; 3: ≥ 10 µM; 4: ≥ 10 µM; 5: 0.676 µM
